molecular target: Jak2 (UniProt O60674); assay: phosphorylation enrichment, bacterial display (enrichment ratio); higher = better substrate or ligand; peptides without Tyr show the background;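 note: 11-residue human phosphosite peptides and single-mutation variants displayed on the E. coli surface, counted by deep sequencing, each peptide's frequency after selection divided by its frequency in the unselected input library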;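 note: frequency after pTyr selection over input frequency; kinase dosed for 20-30% of maximal phosphorylation in three min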
Sequence (O60674 whole entry, looked up): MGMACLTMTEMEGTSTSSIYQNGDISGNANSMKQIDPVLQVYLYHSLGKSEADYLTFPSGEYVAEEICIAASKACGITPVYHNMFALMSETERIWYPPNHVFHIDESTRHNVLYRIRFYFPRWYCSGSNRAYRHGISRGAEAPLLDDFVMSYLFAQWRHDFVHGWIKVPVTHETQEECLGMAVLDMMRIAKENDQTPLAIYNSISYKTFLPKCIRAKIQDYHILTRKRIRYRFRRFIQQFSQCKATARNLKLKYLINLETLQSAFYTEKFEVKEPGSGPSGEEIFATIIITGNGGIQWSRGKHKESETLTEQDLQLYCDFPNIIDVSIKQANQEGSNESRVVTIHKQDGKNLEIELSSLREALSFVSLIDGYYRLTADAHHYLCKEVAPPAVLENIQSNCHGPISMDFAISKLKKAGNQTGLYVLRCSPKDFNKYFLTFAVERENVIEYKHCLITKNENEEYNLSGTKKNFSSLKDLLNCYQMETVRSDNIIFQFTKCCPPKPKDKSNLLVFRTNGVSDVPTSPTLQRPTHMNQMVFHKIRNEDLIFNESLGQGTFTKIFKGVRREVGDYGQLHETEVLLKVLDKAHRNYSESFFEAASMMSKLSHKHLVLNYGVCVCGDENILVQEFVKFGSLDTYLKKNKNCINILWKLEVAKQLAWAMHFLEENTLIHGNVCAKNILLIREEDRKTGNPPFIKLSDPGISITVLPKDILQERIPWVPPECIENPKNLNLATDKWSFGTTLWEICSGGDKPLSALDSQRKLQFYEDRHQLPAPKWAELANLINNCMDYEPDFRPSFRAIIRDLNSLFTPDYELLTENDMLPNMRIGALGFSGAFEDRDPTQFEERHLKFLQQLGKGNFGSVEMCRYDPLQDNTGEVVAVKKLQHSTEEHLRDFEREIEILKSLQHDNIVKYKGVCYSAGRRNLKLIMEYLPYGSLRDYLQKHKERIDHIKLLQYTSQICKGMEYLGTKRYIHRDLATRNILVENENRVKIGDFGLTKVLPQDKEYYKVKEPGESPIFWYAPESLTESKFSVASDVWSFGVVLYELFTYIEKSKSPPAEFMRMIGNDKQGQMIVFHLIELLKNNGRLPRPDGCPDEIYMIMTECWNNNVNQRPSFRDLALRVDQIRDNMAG
Some sequences, each annotated with its measured phosphorylation enrichment.
Would you mind answering with just the numeric figure?

Recorded results for 5 sequences are shown here.
> print(dat)
                     input.sequence                  value.type  quantitative.readout
1  LFFFSYLLKNH [PTEN_Y180_V175L_YF]  phosphorylation enrichment                  2.28
2     LIGTPYWMAPE [PAK5_Y608_V604I]  phosphorylation enrichment                  1.17
3  GIFSGYDDAWD [POLR1C_Y36_N32I_YF]  phosphorylation enrichment                  1.07
4            TYGVVYKARNK [CDK2_Y19]  phosphorylation enrichment                 0.485
5         NVPILYTASQA [CTNNA1_Y222]  phosphorylation enrichment                 0.688

I have this sequence here, SKEPYYVRCIK [MYO1D_Y586] , and I need its recorded phosphorylation enrichment.
1

What value of phosphorylation enrichment has been reported for the following sequence? KKGIVYVFNGR [ITGAV_Y404_I405V]
0.73

# phosphorylation enrichment lookup, item VNCHQYDGLVE [ATP2A2_Y407]
0.848

====

system: Fer (mouse); assay: phosphorylation enrichment, bacterial display (enrichment ratio); higher = better substrate or ligand; peptides without Tyr show the background
The following sequences are listed with their measured phosphorylation enrichment values.

> print(dat)
                      input.sequence  result
 1  FKEDPYLVVNP [MCM6_Y810_E806K_YF]   0.531
 2    LTERSYSFVTT [ACTA1_Y200_G199S]    2.92
 3       DVFVSYDFGKS [SORL1_Y139_YF]   0.485
 4    LIGRGYDDPEV [HSPA9_Y128_R127G]   0.669
 5          IDAICYYRMEN [NPHS2_Y194]   0.642
 6           LYNQDYPIHSV [GATM_Y227]   0.732
 7    QFLMMYVWSAS [ABCD1_Y337_K336M]   0.807
 8   FADIAYNFRRG [PAH_Y166_H170R_YF]    0.39
 9       HNLDFYKKTTN [FGFR3_Y648_YF]    2.46
10      VFDHIYTTQSD [RET_Y928_L923V]   0.443

Could you share which phosphorylation enrichment value was measured for KWHREYNSKYV [RICTOR_Y835] ?
0.32

Which value of phosphorylation enrichment has been reported for GTATAYLCGVK [ALPL_Y117] in the records?
0.463

Can you share its phosphorylation enrichment? I mean this sequence: DLLNSYIENEG [HSPA4L_Y600]
0.545

Request the reported phosphorylation enrichment associated with PVVKLYATEGR [RP1_Y199_D202E]
0.455

Give the measured phosphorylation enrichment of TIWDSYTTNKV [GNB1_Y85_I80T] .
0.485

What does the data say about its phosphorylation enrichment? Entry: LFFFSYLLKNH [PTEN_Y180_V175L_YF]
0.672

Record request: phosphorylation enrichment value, item SRVTQYERNFE [SNX1_Y463_D466N]
0.438

Can you share its phosphorylation enrichment? I mean this sequence: GNEEAYGSSHI [FAM171B_Y522_R524S]
0.4

Dear colleague, I am looking for the recorded phosphorylation enrichment of the following sequence: PLDVEYFTLQI [TP53_Y327_G325V]
0.578

Reported phosphorylation enrichment for YQLPYYNMVPS [BMPR1A_Y458] : what is it?
5.67

What does the data say about its phosphorylation enrichment? Entry: DEEEEYEYMNR [ERBB3_Y1197_D1194E]
0.466

Which phosphorylation enrichment reading was recorded for the sequence EVTLTYATGTK [NFKB1_Y485] ?
0.425

# lookup: phosphorylation enrichment of SVTCTYSPALN [TP53_Y126]
0.626

What value of phosphorylation enrichment has been recorded for this entry: RNESFYDTFST [EFCAB3_Y372]
13.2

Can you share its phosphorylation enrichment? I mean this sequence: ARKWGYTVKGI [OAT_Y158]
0.352

Reported phosphorylation enrichment for PFSNSYENSLI [EPOR_Y489_P488S_YF] : what is it?
0.809

So what does the record say about phosphorylation enrichment for FSAPNCCFRCG [PPP2CA_Y265_Y265C_YF] ?
0.48

Returns the measured phosphorylation enrichment for the input sequence. Input: VGTTAYMAPEA [IRAK4_Y354]
0.452

Request the reported phosphorylation enrichment associated with QGLMPYGQPRP [SRRT_Y798]
0.424

Entry KDAGDYKCKAK [LRIT3_Y326] : reported phosphorylation enrichment = ?
0.312

// returns reported phosphorylation enrichment for input DENCFYTRAAS [RPS19_Y54_W52C]
0.485

May I ask what phosphorylation enrichment has been recorded for TFGVLYKARNK [CDK2_Y19_V18L_YF] ?
0.536

Fill blank: measured phosphorylation enrichment of the sequence AISEGYKDFRA [CDA_Y79_V75I] is ____.
0.313

Which phosphorylation enrichment reading was recorded for the sequence NPQKPYFIRLF [WAS_Y83_S82P_YF] ?
0.457

// returns reported phosphorylation enrichment for input RKQQLYTAMEE [CCDC39_Y593]
0.672

Return reported phosphorylation enrichment; argument: IENKLYGMSDP [RET_Y1062]
0.666
